Value source: paper PMC6617776

# target or test system: ACE (angiotensin I‐converting enzyme, EC 3.4.15.1) (Oryctolagus cuniculus, UniProt P12822)
# Sequence (P12822 34-1310): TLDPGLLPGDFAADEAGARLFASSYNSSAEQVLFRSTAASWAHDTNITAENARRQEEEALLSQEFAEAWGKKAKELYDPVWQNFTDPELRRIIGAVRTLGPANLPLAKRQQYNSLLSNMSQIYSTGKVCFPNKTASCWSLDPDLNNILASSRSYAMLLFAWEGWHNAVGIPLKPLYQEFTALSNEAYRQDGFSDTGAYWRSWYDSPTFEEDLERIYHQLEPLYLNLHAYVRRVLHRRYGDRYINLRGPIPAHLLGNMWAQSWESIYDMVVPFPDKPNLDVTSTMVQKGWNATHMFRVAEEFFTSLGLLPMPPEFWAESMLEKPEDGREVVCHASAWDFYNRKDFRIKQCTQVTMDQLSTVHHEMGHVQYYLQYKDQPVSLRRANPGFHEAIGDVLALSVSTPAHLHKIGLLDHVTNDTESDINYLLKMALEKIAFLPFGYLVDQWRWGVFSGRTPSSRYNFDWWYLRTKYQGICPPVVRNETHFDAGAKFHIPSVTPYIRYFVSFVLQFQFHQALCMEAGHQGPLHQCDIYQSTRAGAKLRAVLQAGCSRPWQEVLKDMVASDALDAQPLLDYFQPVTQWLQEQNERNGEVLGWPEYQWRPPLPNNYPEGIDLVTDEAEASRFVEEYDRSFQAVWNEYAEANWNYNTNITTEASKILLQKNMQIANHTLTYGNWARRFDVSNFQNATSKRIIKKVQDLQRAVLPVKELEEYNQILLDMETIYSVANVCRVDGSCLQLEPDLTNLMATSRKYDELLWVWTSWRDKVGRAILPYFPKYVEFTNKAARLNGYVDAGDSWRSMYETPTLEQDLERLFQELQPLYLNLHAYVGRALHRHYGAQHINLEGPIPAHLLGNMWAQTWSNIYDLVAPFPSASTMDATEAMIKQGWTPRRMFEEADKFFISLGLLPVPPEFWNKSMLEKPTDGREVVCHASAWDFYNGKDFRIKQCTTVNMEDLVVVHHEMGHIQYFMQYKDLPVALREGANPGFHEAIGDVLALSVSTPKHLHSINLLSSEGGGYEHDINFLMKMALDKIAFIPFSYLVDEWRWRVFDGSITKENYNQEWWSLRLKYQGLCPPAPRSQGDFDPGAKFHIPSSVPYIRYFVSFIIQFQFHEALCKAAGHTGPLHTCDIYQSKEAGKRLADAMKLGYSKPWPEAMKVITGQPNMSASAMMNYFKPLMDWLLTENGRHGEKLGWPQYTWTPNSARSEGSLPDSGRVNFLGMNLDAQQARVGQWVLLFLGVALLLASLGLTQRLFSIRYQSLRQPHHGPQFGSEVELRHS
# experiment summary: ACEI activity, fluorimetric assay with o-Abz-Gly-p-Phe(NO2)-Pro-OH
# Type: biochemical
# details: synthetic peptides; concentration of peptide needed to inhibit 50 % of the original ACE activity
Ends that are not written are not given here.
measured parameter: pIC50
In plain terms, pIC50 is the concentration in mol/L turned into minus its base-10 logarithm.

// worked examples, pIC50 included
[
  {
    "substance": "AVFQHNCQE [AVFQHNCQE]",
    "pIC50": 4.35
  },
  {
    "substance": "LSGPVKF [LSGPVKF]",
    "pIC50": 4.09
  }
]

Query: Any idea what its pIC50 is? The substance is QVGPLIGRYCG [QVGPLIGRYCG]
Response: 4.96

Query: Would you kindly repeat that for AVKILP [AVKILP] ?
Response: 5.15
